# MEASURED ON: human c-Met on cells (NCI-H441, NCI-H292, U87-MG) (human, UniProt P08581 25-1390)
# Sequence (P08581 other isoform, or with tags, fused parts or gaps limits assumed): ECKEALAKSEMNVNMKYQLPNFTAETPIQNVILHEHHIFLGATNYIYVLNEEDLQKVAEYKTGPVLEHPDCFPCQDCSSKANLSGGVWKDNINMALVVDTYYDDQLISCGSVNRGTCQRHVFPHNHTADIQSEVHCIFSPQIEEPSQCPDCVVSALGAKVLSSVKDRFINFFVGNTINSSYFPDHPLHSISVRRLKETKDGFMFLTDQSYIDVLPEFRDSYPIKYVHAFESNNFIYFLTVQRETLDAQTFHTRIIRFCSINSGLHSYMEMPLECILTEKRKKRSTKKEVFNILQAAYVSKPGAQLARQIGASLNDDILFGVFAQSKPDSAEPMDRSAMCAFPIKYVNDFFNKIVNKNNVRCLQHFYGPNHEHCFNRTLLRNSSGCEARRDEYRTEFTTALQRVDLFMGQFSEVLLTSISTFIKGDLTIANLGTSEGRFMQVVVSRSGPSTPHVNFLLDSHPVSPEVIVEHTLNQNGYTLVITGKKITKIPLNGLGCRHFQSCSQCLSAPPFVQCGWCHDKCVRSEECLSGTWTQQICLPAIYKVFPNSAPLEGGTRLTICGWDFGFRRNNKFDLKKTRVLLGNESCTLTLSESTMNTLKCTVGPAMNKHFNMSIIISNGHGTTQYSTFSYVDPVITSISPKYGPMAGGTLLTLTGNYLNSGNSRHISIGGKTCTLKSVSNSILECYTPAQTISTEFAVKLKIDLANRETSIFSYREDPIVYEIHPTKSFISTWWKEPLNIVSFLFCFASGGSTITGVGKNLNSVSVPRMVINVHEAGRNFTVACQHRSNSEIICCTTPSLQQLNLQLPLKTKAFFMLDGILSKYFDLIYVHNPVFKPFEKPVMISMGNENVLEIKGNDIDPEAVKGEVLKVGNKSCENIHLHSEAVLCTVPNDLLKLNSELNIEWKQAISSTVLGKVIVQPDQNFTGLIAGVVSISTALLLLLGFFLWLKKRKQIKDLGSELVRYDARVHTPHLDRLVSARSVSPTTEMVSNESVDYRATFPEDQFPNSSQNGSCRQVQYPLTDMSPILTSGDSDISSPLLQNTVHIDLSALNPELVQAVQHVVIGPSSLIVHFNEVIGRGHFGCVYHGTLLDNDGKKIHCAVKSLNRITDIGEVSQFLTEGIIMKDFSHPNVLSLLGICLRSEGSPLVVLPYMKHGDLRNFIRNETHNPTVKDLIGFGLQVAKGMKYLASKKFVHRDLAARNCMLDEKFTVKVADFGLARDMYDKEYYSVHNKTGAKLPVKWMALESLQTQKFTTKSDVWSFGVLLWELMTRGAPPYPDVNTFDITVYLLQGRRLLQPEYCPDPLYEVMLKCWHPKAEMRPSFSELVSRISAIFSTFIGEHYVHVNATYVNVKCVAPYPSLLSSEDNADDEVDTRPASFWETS
# TEST DETAILS: cell-based or functional assay
Each entry below carries its reported pMet inhibition in H441 cells IC50.
# output: bare number, implied unit nM

{"BINDER": "P114AR7P94-E5 (designed binder, not shown: small tags and cut ends) LPAPKNLVVSRVTEDSARLSWTAPDAAFDSFWIRYFEFLGSGEAIVLTVPGSERSYDLTGLKPGTEYAVNIMGVKGGRVSVPLSAIFTT", "pMet inhibition in H441 cells IC50 [nM]": 124}
{"BINDER": "P114AR7P95-F10 (designed binder, not shown: small tags and cut ends) LPAPKNLVVSRVTEDSARLSWTAPDAAFDSFWIRYFEFTTAGEAIVLTVPGSERSYDLTGLKPGTEYVVNIMGVKGGSISPPLSAIFTT", "pMet inhibition in H441 cells IC50 [nM]": 188}
{"BINDER": "P114AR7P92-H5 (designed binder, not shown: small tags and cut ends) LPAPKNLVVSRVTEDSARLSWTAPDAAFDSFWIRYLEFLLGGEAIVLTVPGSERSYDLTGLKPGTEYVVQIMGVKGGTVSPPLSAIFTT", "pMet inhibition in H441 cells IC50 [nM]": 766}

API: the following record is the query input.
Request: # lookup: pMet inhibition in H441 cells IC50 of P114AR7P93-H9 (designed binder, not shown: small tags and cut ends) LPAPKNLVVSRVTEDSARLSWTAPDAAFDSFWIRYFEFLGSGEAIVLTVPGSERSYDLTGLKPGTEYVVQIIGVKGGHISLPLSAIFTT
Result: 288
